- ASSAY: Pharmacokinetics following oral (PO) dosing
- Format: in vivo, Sprague-Dawley rats
- SETUP_CONDITIONS: male, Sprague-Dawley, rat, plasma; hydroxycodone series, 5.0 mg/kg oral, Mean ± SD; read-out: Cmax
Record form. Attribute: Cmax. Fill in for each entry.
// return numeric value only (unit: ng/mL, not printed)

Entry COCCOC1CCC2(O)C3Cc4ccc(OC)c5c4C2(CCN3C)C1O5 (stereo not drawn) [α-6-mPEG1-O-hydroxycodone, α-6-mPEG1-O-oxycodone] — recorded Cmax = 14.3

Per the record, COCCOCCOCCOCCOCCOCCOC1CCC2(O)C3Cc4ccc(OC)c5c4C2(CCN3C)C1O5 (stereo not drawn) [α-6-mPEG6-O-hydroxycodone, α-6-mPEG6-O-oxycodone] has Cmax of 171

Entry under test: COCCOCCOCCOCCOC1CCC2(O)C3Cc4ccc(OC)c5c4C2(CCN3C)C1O5 (stereo not drawn) [α-6-mPEG4-O-hydroxycodone, α-6-mPEG4-O-oxycodone] . Its Cmax was 55.8

Measured Cmax of COCCOCCOCCOCCOCCOCCOCCOC1CCC2(O)C3Cc4ccc(OC)c5c4C2(CCN3C)C1O5 (stereo not drawn) [α-6-mPEG7-O-hydroxycodone, α-6-mPEG7-O-oxycodone] : 114

Measured Cmax of COCCOCCOC1CCC2(O)C3Cc4ccc(OC)c5c4C2(CCN3C)C1O5 (stereo not drawn) [α-6-mPEG2-O-hydroxycodone, α-6-mPEG2-O-oxycodone] : 99.4

----------
- ASSAY: Pharmacokinetics following oral (PO) dosing
- Assay type: in vivo, Sprague-Dawley rats
- SETUP_CONDITIONS: male, Sprague-Dawley, rat, plasma, po, 5 mg/kg
Please provide measured bioavailability for the entries that follow.
Give just the number in %; leave the unit off.

So, COCCOCCOC1CCC2(O)C3Cc4ccc(OC)c5c4C2(CCN3C)C1O5 (stereo not drawn) [α-6-mPEG2-O-hydroxycodone, α-6-mPEG2-O-oxycodone] ? Its bioavailability was 9.4

// field: bioavailability; key: COCCOCCOCCOCCOCCOCCOC1CCC2(O)C3Cc4ccc(OC)c5c4C2(CCN3C)C1O5 (stereo not drawn) [α-6-mPEG6-O-hydroxycodone, α-6-mPEG6-O-oxycodone] ; value = 55.3

Measured bioavailability of COCCOCCOCCOC1C=CC2C3Cc4ccc(OC)c5c4C2(CCN3C)C1O5 (centres unmarked) : 2.39

Field bioavailability (entry COCCOC1CCC2(O)C3Cc4ccc(OC)c5c4C2(CCN3C)C1O5 (stereo not drawn) [α-6-mPEG1-O-hydroxycodone, α-6-mPEG1-O-oxycodone] ) reads 2.1

Reported bioavailability ( COCCOCCOCCOCCOCCOCCOCCOC1C=CC2C3Cc4ccc(OC)c5c4C2(CCN3C)C1O5 (centres unmarked) ) = 26.9

Given item COCCOCCOCCOCCOCCOCCOCCOCCOCCOC1C=CC2C3Cc4ccc(OC)c5c4C2(CCN3C)C1O5 (centres unmarked) , the value recorded as its bioavailability is 8.22

Note to self: bioavailability recorded for COCCOCCOCCOCCOCCOC1C=CC2C3Cc4ccc(OC)c5c4C2(CCN3C)C1O5 (centres unmarked) was 10.1

// field: bioavailability; key: COCCOCCOCCOCCOC1C=CC2C3Cc4ccc(OC)c5c4C2(CCN3C)C1O5 (centres unmarked) ; value = 3.47

----------
- ASSAY: Pharmacokinetics following oral (PO) dosing
- Format: in vivo, Sprague-Dawley rats
- SETUP_CONDITIONS: male, Sprague-Dawley, rat, plasma; hydroxycodone series, 5.0 mg/kg oral, Mean ± SD
READOUT_NAME: MRT last (h)
All answers are understood in h, so give the number only.

Reported MRT last of COCCOC1CCC2(O)C3Cc4ccc(OC)c5c4C2(CCN3C)C1O5 (stereo not drawn) [α-6-mPEG1-O-hydroxycodone, α-6-mPEG1-O-oxycodone] : 1.11

For reference, reported MRT last for COCCOCCOCCOCCOC1CCC2(O)C3Cc4ccc(OC)c5c4C2(CCN3C)C1O5 (stereo not drawn) [α-6-mPEG4-O-hydroxycodone, α-6-mPEG4-O-oxycodone] stands at 1.61

For COCCOCCOCCOCCOCCOCCOCCOC1CCC2(O)C3Cc4ccc(OC)c5c4C2(CCN3C)C1O5 (stereo not drawn) [α-6-mPEG7-O-hydroxycodone, α-6-mPEG7-O-oxycodone] the compound record lists MRT last as 2.97

Lab note: measured MRT last of COCCOCCOCCOCCOCCOCCOC1CCC2(O)C3Cc4ccc(OC)c5c4C2(CCN3C)C1O5 (stereo not drawn) [α-6-mPEG6-O-hydroxycodone, α-6-mPEG6-O-oxycodone] was 2.57

Lookup result for COCCOCCOC1CCC2(O)C3Cc4ccc(OC)c5c4C2(CCN3C)C1O5 (stereo not drawn) [α-6-mPEG2-O-hydroxycodone, α-6-mPEG2-O-oxycodone] ; measured MRT last: 0.923
